Target: T1, P2-AA
T1 chain: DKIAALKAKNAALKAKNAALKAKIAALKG
Assay: two-hybrid library CCmax;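 further: natural log of median RNA to DNA barcode read ratio; higher means stronger binding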
Details: mean of both orientations
Exercise: state measured interaction score for each of the binders provided.
Give bare numbers.

Field: example entries. Status: answers known.
[
  {
    "binder": "DEIAALEAERAALEAENAALEAEIAALEG [P1-AA-1HAA-R]",
    "interaction score": 1.76
  },
  {
    "binder": "DEIAALEAEAAALEAEAAALEAEIAALEG [P1-AA-12HAA-A]",
    "interaction score": 1.79
  },
  {
    "binder": "DEIAALEAEYAALEAENAALEAEIAALEG [P1-AA-1HAA-Y]",
    "interaction score": 2.07
  }
]

Could you report interaction score for every entry in the following list?
1. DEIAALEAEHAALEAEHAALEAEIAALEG [P1-AA-12HAA-H]
2. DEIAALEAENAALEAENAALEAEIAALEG [P1-AA]
3. DEIAALEAEDAALEAENAALEAEIAALEG [P1-AA-1HAA-D]
4. DEIAALEAKNAALKAENAALEAEIAALEG [4H465-AA]

A:
1. 1.85
2. 2.11
3. 2.18
4. 1.61
